Target: S1-Fc (SARS-CoV-2, UniProt P0DTC2 16-685)
Test: phage ELISA
I'd appreciate it if you could supply ELISA fold over background values for the items below.
Units required after the number.

Input line: Need ELISA fold over background of 1-10 (antibody, V domains shown, also called variant 1-10) VH: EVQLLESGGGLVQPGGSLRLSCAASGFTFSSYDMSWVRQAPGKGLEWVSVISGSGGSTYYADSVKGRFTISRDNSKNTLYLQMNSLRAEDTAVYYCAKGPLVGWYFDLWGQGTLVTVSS VL: QSALTQPASVSGSPGQSITISCTGTSSNVGSYNLVSWYQQHPGKAPKLMIYEGTKRPSGVSNRFSGSKSGNTASLTISGLQAEDEADYYCCSYAGSSSFVVFGGGTKLTVL , thanks.
Output line: 1.3 fold over background

Input line: Need ELISA fold over background of 1-30 (antibody, V domains shown, also called variant 1-30) VH: EVQLLESGGGLVQPGGSLRLSCAASGFTFSSYAMTWVRQAPGKGLEWVSAISGSGGSTFYADSVKGRFTISRDNSKNTLYLQMNSLRAEDTAVYYCTRPPYGDYGDYWGQGTLVTVSS VL: QSALTQPASVSGSPGQSITISCTGTSRDVGSYNLVSWYQQHPGKAPKLMIYEGTKRPSGVSNRFSGSKSGNTASLTISGLQAEDEADYYCCSYAGSRTPVVFGGGTKLTVL , thanks.
Output line: 5.6 fold over background

Input line: Need ELISA fold over background of 1-17 (antibody, V domains shown, also called variant 1-17) VH: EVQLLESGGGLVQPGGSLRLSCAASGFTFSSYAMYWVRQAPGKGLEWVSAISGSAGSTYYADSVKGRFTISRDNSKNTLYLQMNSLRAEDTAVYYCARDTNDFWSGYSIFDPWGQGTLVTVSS VL: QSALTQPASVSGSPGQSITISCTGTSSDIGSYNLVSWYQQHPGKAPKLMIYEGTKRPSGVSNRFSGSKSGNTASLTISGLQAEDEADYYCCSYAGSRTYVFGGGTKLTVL , thanks.
Output line: 1.6 fold over background
